Molecular target: T1, biotinylated PD1-ECD-AviHis (human, UniProt Q15116 25-170, biotinylated, site not stated)
T1 construct: also called huPD1; hu PD1
Experiment: ELISA, inhibition of PD-L1 Fc binding to coated PD1-ECD-AviHis
endpoint: IC50 (µg/mL)
Please respond with the number in µg/mL and leave the unit unwritten.

PD1-0069 (antibody, V domains shown) VH: QVQLQQSGPELVRPGVSVKISCKGSGYTFTDYAMHWVKQSHARTLEWIGVISTYSGDTNYNQKFKDKATMTVDKSSSTAYLELARMTSEDSAIYYCARLGITTGFAYWGQGTLVTVSA VL: DIVLTQSPASLAVSLGQRATISCRASKGVSTSSYSFMHWYQQKPRQPPKLLIKYASYLESGVPARFSGSGSGTDFTLNIHPVEEEDAATYYCHHSREFPWTFGGGTKLEIK | 0.225
PD1-0050 (antibody, V domains shown) VH: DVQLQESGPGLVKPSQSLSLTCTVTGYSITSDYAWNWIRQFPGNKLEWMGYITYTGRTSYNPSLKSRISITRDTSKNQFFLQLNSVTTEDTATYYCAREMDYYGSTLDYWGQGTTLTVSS VL: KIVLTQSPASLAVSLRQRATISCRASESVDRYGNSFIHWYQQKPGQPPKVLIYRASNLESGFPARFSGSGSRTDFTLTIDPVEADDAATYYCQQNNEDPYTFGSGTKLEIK | 0.128
PD1-0073 (antibody, V domains shown) VH: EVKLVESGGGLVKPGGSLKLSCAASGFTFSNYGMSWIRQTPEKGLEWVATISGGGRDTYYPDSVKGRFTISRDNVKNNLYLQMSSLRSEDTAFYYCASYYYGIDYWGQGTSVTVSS VL: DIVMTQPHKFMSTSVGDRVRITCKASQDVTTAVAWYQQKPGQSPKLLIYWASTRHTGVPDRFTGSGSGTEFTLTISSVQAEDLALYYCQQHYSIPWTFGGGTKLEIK | 0.124
PD1-0098 (antibody, V domains shown) VH: DVQLQESGPGLVKPSQSLSLTCTVTGYSITSDYAWNWIRQFPGDKLEWLGYITYSGFTNYNPSLKSRISISRDTSKNQFFLQLNSVATEDTATYYCARWHGSAPWYFDYWGRGTTLTVSS VL: DVLMTQTPLSLPVSLGDQASISCRSSQNIVHSDGNTYLEWYLQKPGQSPNLLIYKVSRRFSGVPDRFSGSGSGTDFTLKISRVEAEDLGVYYCFQGSHFPLTFGAGTKLELK | 0.174

Now take the following binder into account.
IN: Given PD1-0103 (antibody, V domains shown, Mouse monoclonal antibody) VH: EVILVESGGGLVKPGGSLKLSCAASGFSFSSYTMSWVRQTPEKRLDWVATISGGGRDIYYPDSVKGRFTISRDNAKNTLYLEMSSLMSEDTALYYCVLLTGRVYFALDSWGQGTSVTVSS VL: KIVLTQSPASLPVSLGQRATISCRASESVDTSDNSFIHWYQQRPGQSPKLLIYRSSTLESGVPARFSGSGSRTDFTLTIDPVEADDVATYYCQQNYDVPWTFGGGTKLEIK , state its recorded IC50.
OUT: 0.182
